# System: MKL-1
# procedureSummary: qHTS assay to identify novel small-molecules to repurpose for Merkel cell carcinoma treatment (AID 1296009); further: nearly all actives have a fitted effect of over 60% in size
# appliedConditions: MCC and control cell lines, CellTiter-Glo viability, 72 h; series mostly up to 46 µM
Records with an inconclusive call do not appear. Activity calls are given as the source filed them. The call rests on the fitted dose curve; in most records, active means well fitted inhibition curve with a large enough effect; inconclusive means small, poorly fitted or top-dose-only effect; inactive means flat fitted curve, though single readings scatter.
Give one outcome, nothing more. List: True for active, False for inactive

compound=Cc1cc2c(cc1C1(c3ccc(C(=O)O)cn3)CC1)C(C)(C)CCC2(C)C discretelabel=False
compound=COC(=O)[C@H](c1ccccc1Cl)N1CCc2sccc2C1 discretelabel=False

In this assay, the call recorded for OC1CCC(Nc2ncc3nc(Nc4c(F)cc(F)cc4F)n([C@@H]4CCOC4)c3n2)CC1 (stereo not given in full) was what?
False

In this assay, the call recorded for O=C(Nc1cccc(Cl)c1)Nc1ncc(CCNc2ncnc3ccsc23)s1 was what?
True

In this assay, the call recorded for COc1nc(C)cnc1NS(=O)(=O)c1cccnc1-c1ccc(-c2nnco2)cc1 was what?
False

In this assay, the call recorded for O=C1C(CCC(O)c2ccc(F)cc2)C(c2ccc(O)cc2)N1c1ccc(F)cc1 (stereo not given) was what?
False

In this assay, the call recorded for CN1CCC[C@H]1CCO[C@](C)(c1ccccc1)c1ccc(Cl)cc1 was what?
False

====

# Test system: HeLa
# procedureSummary: Primary qHTS to identify gynecologic anti-cancer compounds using libraries of approved drugs and bioactive compounds (AID 1345084); further: nearly all actives have a fitted effect of over 55% in size
# appliedConditions: Gynecologic cancer cell panel viability, ATPlite luminescence, 48 h; series mostly up to 57.5 µM
Records with an inconclusive call do not appear. Active and inactive are the calls of the source. Calls follow the shape of the dose curve; as a rule, active = well fitted cell-killing curve with a large enough effect; inconclusive = small, poorly fitted or top-dose-only effect, or effect the other way; inactive = flat fitted curve, though single readings scatter.
Give one outcome, nothing more. List: active, inactive

// known answers, use as guide
molecule=COc1ccc(-c2ccc3ncc4c(c3c2)n(-c2ccc(N3CCNCC3)c(C(F)(F)F)c2)c(=O)n4C)cn1 discretelabel=active
molecule=CCc1cccc(CC)c1NC(=O)N1Cc2[nH]nc(NC(=O)c3ccc(N4CCN(C)CC4)cc3)c2C1 discretelabel=active
molecule=CNC(=O)c1c(-c2ccc(F)cc2)oc2cc(N(CCO)S(C)(=O)=O)c(C3CC3)cc12 discretelabel=inactive
molecule="CN1C(=O)C(Cc2c[nH]c3ccccc23)NC1=S (stereo not given)" discretelabel=inactive

Let us examine a further case.
In this assay, the call recorded for c1ccc(CNc2nc(N3CCOc4ccccc43)nc3c2CCCC3)cc1 was what?
inactive

====

# procedureSummary: Quantitative High-Throughput drug screen in 47 multiple myeloma cell lines against the NCATS MIPE library collection: VP6_DJ cell viability assay (AID 1919867); further: potency means the concentration at half of the fitted maximal effect; nearly all actives have a fitted effect of over 40% in size
# appliedConditions: ATP luminescence, 48 h; series mostly up to 45.8 µM
Records with an inconclusive call do not appear. Calls of active or inactive are those of the source. The call rests on the fitted dose curve; in most records, active means well fitted cell-killing curve with a large enough effect; inconclusive means small, poorly fitted or top-dose-only effect, or effect the other way; inactive means no such curve, though single readings can be large or run the other way.
I'd be grateful if you could share measured Potency for these entries.

Observe how each entry below is paired with its result.
smiles=O=C(CO)N1CCC(c2[nH]nc(-c3ccc(Cl)cc3)c2-c2ccncn2)CC1 endpointlabel=Potency result="1050 nM (active)"
smiles=Cc1ccc(S(=O)(=O)OCC(=O)Nc2ccc(C(=O)O)c(O)c2)cc1 endpointlabel=Potency result="16600 nM (active)"
smiles=NC1(C(=O)N[C@@H](CCO)c2ccc(Cl)cc2)CCN(c2ncnc3[nH]ccc23)CC1 endpointlabel=Potency result="235 nM (active)"
smiles=Cc1cnc(Nc2cccc(CN3CCOCC3)c2)nc1Nc1cccc(S(=O)(=O)NC(C)(C)C)c1 endpointlabel=Potency result="2960 nM (active)"

Here is another compound to look at.
The recorded Potency for entry CN(C)c1ccccc1CN1CCCN(Cc2ccccc2N(C)C)C1c1ccncc1 equals 18700 nM (active)

====

# procedureSummary: qHTS of pediatric cancer cell lines to identify multiple opportunities for drug repurposing: Primary screen for BT-12 cells (AID 1347101); further: nearly all actives have a fitted effect of over 25% in size; further: potency means the concentration at half of the fitted maximal effect
# appliedConditions: BT-12 viability, CellTiter-Glo luminescence, 48 h; series mostly up to 57.3 µM
Results filed as inconclusive are left out. The source made the active and inactive calls. Calls come from the whole dose curve; as a rule, active = well fitted cell-killing curve with a large enough effect; inconclusive = small, poorly fitted or top-dose-only effect; inactive = flat fitted curve, though single readings scatter.
endpointLabel: Potency

compound=C[C@]12CCC3=C4CCC(=O)C=C4CC[C@@H]3[C@H]1CC[C@@]2(O)CC#N endpointlabel=Potency result=inactive
compound=C[C@H](CCC(=O)O)[C@H]1CC[C@H]2[C@H]3[C@@H](CC[C@]12C)[C@@]1(C)CC[C@@H](O)C[C@H]1C[C@@H]3O endpointlabel=Potency result=inactive
compound="C[C@@H]1O[C@@H](O[C@H]2CC[C@@]3(C)[C@H](CC[C@@H]4[C@H]3C[C@@H](O)[C@]3(C)[C@@H](C5=CC(=O)OC5)CC[C@]43O)C2)C[C@H](O)[C@@H]1O[C@H]1C[C@H](O)[C@H](O[C@H]2C[C@H](O)[C@@H](O)[C@@H](C)O2)[C@H](C)O1 (stereo in doubt)" endpointlabel=Potency result="0.14 µM (active)"
compound=Cc1ccc(C(=O)N(CCCN)[C@@H](c2nc3cc(Cl)ccc3c(=O)n2Cc2ccccc2)C(C)C)cc1 endpointlabel=Potency result="0.001 µM (active)"
compound=NC(=O)c1ccc(N(C(N)=O)c2c(F)cccc2F)nc1-c1ccc(F)cc1F endpointlabel=Potency result=inactive
compound=CC(C)CN(C[C@@H](O)[C@H](Cc1ccccc1)NC(=O)O[C@H]1CO[C@H]2OCC[C@H]21)S(=O)(=O)c1ccc(N)cc1 endpointlabel=Potency result="3.85 µM (active)"
compound=O=C(c1ccc(C(=O)N2CCC(N3CCCC3)CC2)c(Nc2ccccc2)c1)N1CCC(N2CCCC2)CC1 endpointlabel=Potency result=inactive
compound=OC[C@H]1O[C@@H](Oc2ccc(O)cc2)[C@H](O)[C@@H](O)[C@H]1O endpointlabel=Potency result=inactive

Required: Potency, one value per compound below.
1. CC(C)(C)c1[nH]cnc1C=c1[nH]c(=O)c(=Cc2ccccc2)[nH]c1=O
2. CN(CC=CC#CC(C)(C)C)Cc1cccc2ccccc12
3. CN1C(=O)C(Cc2c[nH]c3ccccc23)NC1=S (stereo unspecified)
4. C[C@@]1(c2cc(-c3cncnc3)c(F)cc2F)CCSC(N)=N1
5. C[C@H]1[C@H](O)O[C@@H]2O[C@@]3(C)CC[C@@H]4[C@H](C)CC[C@@H]1[C@@]24OO3
6. NS(=O)(=O)c1ccc(Nc2nc(OCC3CCCCC3)c3[nH]cnc3n2)cc1

1: 0.0111 µM (active); 2: inactive; 3: inactive; 4: 3.85 µM (active); 5: 1.53 µM (active); 6: inactive

Required: Potency, one value per compound below.
1. NC[C@H]1O[C@H](O[C@@H]2[C@@H](O)[C@@H](O[C@H]3O[C@H](CO)[C@@H](O)[C@H](N)[C@@H]3O)[C@H](N)C[C@@H]2N)[C@H](O)[C@@H](O)[C@H]1O
2. OC[C@H]1O[C@@H](O[C@H]2[C@@H](O)[C@@](O)(CO)O[C@@H]2CO)[C@H](O)[C@@H](O)[C@@H]1O

["inactive", "inactive"]

====

# system: ATP-dependent 6-phosphofructokinase (Trypanosoma brucei brucei) (UniProt O15648)
# Sequence (O15648 whole entry, looked up): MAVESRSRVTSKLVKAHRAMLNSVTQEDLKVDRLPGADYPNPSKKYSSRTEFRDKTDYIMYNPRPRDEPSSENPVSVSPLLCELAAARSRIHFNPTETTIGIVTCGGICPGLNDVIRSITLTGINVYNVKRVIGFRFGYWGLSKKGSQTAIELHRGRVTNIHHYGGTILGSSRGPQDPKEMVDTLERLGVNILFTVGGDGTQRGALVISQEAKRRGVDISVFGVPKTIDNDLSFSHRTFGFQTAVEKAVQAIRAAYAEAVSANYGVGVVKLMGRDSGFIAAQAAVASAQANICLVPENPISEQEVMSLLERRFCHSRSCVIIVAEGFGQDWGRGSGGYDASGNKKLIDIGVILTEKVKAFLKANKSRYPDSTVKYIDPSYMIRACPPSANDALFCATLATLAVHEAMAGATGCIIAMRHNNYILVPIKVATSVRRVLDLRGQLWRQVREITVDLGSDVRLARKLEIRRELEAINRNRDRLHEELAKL
# procedureSummary: qHTS Assay to Find Inhibitors of T. brucei phosphofructokinase: hit validation (AID 492961);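 further: luminescence reports ADP formed as PFK phosphorylates fructose-6-phosphate with ATP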
# appliedConditions: T. brucei PFK, ADP-Glo luminescence; series mostly up to 51.4 µM
Results filed as inconclusive are left out. Activity calls are given as the source filed them. The call rests on the fitted dose curve; in most records, active means well fitted inhibition curve with a large enough effect; inconclusive means small, poorly fitted or top-dose-only effect, or effect the other way; inactive means flat fitted curve, though single readings scatter.
endpointLabel: outcome

Observe how each entry below is paired with its result.
compound="NCC1CCC(C(=O)O)CC1 (stereo not given)" system="ATP-dependent 6-phosphofructokinase (Trypanosoma brucei brucei) (UniProt O15648)" result=inactive
compound="COc1ccnc(CS(=O)c2nc3ccc(OC(F)F)cc3[nH]2)c1OC (stereo not given)" system="ATP-dependent 6-phosphofructokinase (Trypanosoma brucei brucei) (UniProt O15648)" result=inactive
compound=N#Cc1c(N(CC(=O)O)CC(=O)O)sc(C(=O)O)c1CC(=O)O system="ATP-dependent 6-phosphofructokinase (Trypanosoma brucei brucei) (UniProt O15648)" result=inactive
compound=O=C(O)c1nc(=O)[nH]c(=O)[nH]1 system="ATP-dependent 6-phosphofructokinase (Trypanosoma brucei brucei) (UniProt O15648)" result=inactive

The reported ATP-dependent 6-phosphofructokinase (Trypanosoma brucei brucei) (UniProt O15648) outcome of CN1CC(=O)N2C(Cc3c([nH]c4ccccc34)[C@H]2c2ccc3c(c2)OCO3)C1=O (stereo not given in full) is inactive

====

# procedureSummary: High-throughput drug toxicity screening in the BPDCN cell line Gen2.2 (AID 1224824);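 further: cells exposed to compounds for 48 h before reading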
# appliedConditions: Gen2.2 BPDCN cells; at 45.8 µM (top of the series) unless noted
Assign classes using reported cell viability, % of control (lower = more cytotoxic) values and the ranges group A = under 80%, group B = from 80% up to 200%, group C = 200% and over, please.

// known answers, use as guide
compound=C#C[C@]1(O)CC[C@H]2[C@H]3CCc4cc(OC)ccc4[C@H]3CC[C@@]21C discretelabel="group C"
compound=CN(C)S(=O)(=O)c1ccc2c(c1)C(=Cc1cc3c([nH]1)CCCC3)C(=O)N2 discretelabel="group B"
compound=Cc1nc(C(=O)NCC(=O)O)c(O)c2ccc(Oc3ccccc3)cc12 discretelabel="group A"
compound=COc1ccc(Cn2ccc3ccc(C(=O)NO)cc32)cc1 discretelabel="group C"
compound=CN1CCN(c2cccc(Nc3nc4c(-c5ccc(S(C)(=O)=O)cc5)cccn4n3)c2)CC1 discretelabel="group B"

In plain terms, what class is COC(=O)[C@H](c1ccccc1Cl)N1CCc2sccc2C1 ?
group B

In plain terms, what class is CC(C)(F)C[C@H](N[C@@H](c1ccc(-c2ccc(S(C)(=O)=O)cc2)cc1)C(F)(F)F)C(=O)NC1(C#N)CC1 ?
group B

In plain terms, what class is CCC(=O)NCC[C@@H]1CCc2ccc3c(c21)CCO3 ?
group B

In plain terms, what class is Cn1c(=O)c(-c2c(Cl)cccc2Cl)cc2cnc(Nc3cccc(C(=O)O)c3)nc21 ?
group C

In plain terms, what class is CS(=O)(=O)c1ccc(C2=C(c3ccccc3)C(=O)OC2)cc1 ?
group B

In plain terms, what class is COc1ccc(CCN(C)CCCOc2ccc(S(=O)(=O)c3[nH]c4ccccc4c3C(C)C)cc2)cc1OC ?
group A

In plain terms, what class is COc1cc(C=CC(=O)O)ccc1O ?
group B

In plain terms, what class is CC1(C)OC2CC3C4CC(F)C5=CC(=O)C=CC5(C)C4C(O)CC3(C)[C@]2(C(=O)CO)O1 (stereo partly drawn) ?
group A

In plain terms, what class is CCC[C@H](Nc1nc(-c2ccc(NC(=O)NCC)c(OC)c2)ncc1C)c1cccnc1 ?
group A

In plain terms, what class is Cc1ccc2c(c1)c1c(n2CCc2ccc(C)nc2)CCN(C)C1 ?
group B

Hey, just so you know, these numbers are from PubChem BioAssay (NCATS).
